Provenance of the data: ChEMBL document CHEMBL1201862

AC50 values by entry
target entity: DNA repair and recombination protein RAD54-like (Homo sapiens)
Sequence (Q92698 whole entry): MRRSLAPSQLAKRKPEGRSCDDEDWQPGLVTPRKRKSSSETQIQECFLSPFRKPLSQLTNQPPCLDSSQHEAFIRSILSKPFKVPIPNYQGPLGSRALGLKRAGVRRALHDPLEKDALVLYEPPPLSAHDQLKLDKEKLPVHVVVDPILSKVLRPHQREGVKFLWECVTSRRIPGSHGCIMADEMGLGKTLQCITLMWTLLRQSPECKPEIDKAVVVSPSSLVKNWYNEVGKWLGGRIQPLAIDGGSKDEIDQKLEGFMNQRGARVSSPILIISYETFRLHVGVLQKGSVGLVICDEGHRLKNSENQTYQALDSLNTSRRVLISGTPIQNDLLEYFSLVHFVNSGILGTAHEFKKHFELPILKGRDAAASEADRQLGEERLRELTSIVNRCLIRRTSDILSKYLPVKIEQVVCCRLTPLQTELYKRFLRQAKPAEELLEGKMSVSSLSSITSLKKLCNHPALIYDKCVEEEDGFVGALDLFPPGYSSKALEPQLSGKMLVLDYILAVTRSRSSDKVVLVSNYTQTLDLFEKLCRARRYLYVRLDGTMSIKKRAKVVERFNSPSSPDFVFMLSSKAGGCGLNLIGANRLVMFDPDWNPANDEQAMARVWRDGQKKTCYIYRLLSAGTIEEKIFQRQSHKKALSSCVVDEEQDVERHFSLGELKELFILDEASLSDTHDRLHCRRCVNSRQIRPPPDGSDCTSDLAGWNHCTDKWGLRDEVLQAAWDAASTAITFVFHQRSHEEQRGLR
protocol details: RAD54 Holliday junction migration blockers – biochemical, fluorescence, cherry-picked samples, dose series, confirmation (AID 651657)
Format: functional
Calls of active or inactive are those of the source.

smiles notation: COc1ccc(C(=O)Nc2cc(C)c(NC(=O)c3ccccc3OC)cn2)cc1
AC50: 100 µM (inactive)
--
smiles notation: O=C(CN1CCCCC1)n1c2ccccc2c2ccccc21
AC50: 12.1 µM (active)
--
smiles notation: CCN1CCN(C(S)=Nc2ccc3nc(N4CCN(C)CC4)cc(C)c3c2)CC1
AC50: 91.2 µM (active)
--
smiles notation: Cc1nc2ccccc2c2oc(C(=O)N3CCC(N4CCCCC4)CC3)cc12
AC50: 23.1 µM (active)

====

target entity: Sentrin-specific protease 8 (Homo sapiens, UniProt Q96LD8)
Sequence (Q96LD8 whole entry): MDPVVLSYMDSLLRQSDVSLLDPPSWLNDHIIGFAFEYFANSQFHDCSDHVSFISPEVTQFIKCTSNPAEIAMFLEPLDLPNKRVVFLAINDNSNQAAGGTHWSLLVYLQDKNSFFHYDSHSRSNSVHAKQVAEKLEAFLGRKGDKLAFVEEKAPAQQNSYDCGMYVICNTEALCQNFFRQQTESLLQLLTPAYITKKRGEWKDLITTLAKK
Format: functional
Activity calls are given as the source filed them.
Labels: yes (1) (active), no (0) (inactive)

smiles notation: CCOC(=O)c1ccc(NC(=O)/C=C/c2cccs2)cc1
target entity: Sentrin-specific protease 8 (Homo sapiens, UniProt Q96LD8)
assigned label: yes (1)
//
smiles notation: O=C(O)c1ccc2cc(-c3ccccc3)[nH]c2c1
target entity: Sentrin-specific protease 8 (Homo sapiens, UniProt Q96LD8)
assigned label: yes (1)
//
smiles notation: O=[N+]([O-])c1cccc(/C=N/Nc2ccccn2)c1
target entity: Sentrin-specific protease 8 (Homo sapiens, UniProt Q96LD8)
assigned label: no (0)
//
smiles notation: O=C(COC(=O)c1ccc([N+](=O)[O-])s1)NCCc1ccccc1
target entity: Sentrin-specific protease 8 (Homo sapiens, UniProt Q96LD8)
assigned label: yes (1)
//
smiles notation: Cc1ccc(Cl)c2sc(NC(=O)C3=COCCO3)nc12
target entity: Sentrin-specific protease 8 (Homo sapiens, UniProt Q96LD8)
assigned label: no (0)
//
smiles notation: CCOC(=O)c1c(NS(=O)(=O)c2ccccc2)n(CCCOC)c2nc3ccccc3nc12
target entity: Sentrin-specific protease 8 (Homo sapiens, UniProt Q96LD8);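 further: luminescence read-out of SENP8 inhibition, dose-response confirmation following an ultra-high-throughput screen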
assigned label: yes (1)

====

Reported values: AC50 for Cytochrome P450 2D6 (Homo sapiens), one per item.

compound: O=S(=O)(NCCNC/C=C\c1ccc(Br)cc1)c1cccc2cnccc12
AC50: 25.1 µM (inconclusive)

compound: O=C(CSCc1ccccc1Cl)NNC(=S)Nc1ccccc1
AC50: 14.1 µM (inconclusive)

compound: O=C(c1cccc(F)c1)N1CCC2(CCCN(c3ccncc3)C2)CC1
AC50: 15.8 µM (inconclusive)

compound: CS(=O)(=O)N1CCC2(CC1)CN(Cc1ccncc1)C2
AC50: 20 µM (inconclusive)

compound: CCN(c1nc(N)c(C(=O)NC(=N)N)nc1Cl)C(C)C [5-(N-ETHYL-N-ISOPROPYL)AMILORIDE]
AC50: 31.6 µM (inconclusive)

compound: CN(C)C(CNC(=O)NC1CCCCC1)c1cccnc1 (centres undefined)
AC50: 31.6 µM (inconclusive)

compound: Nc1nc(Br)c2c(F)cccc2c1-c1ccc(Cl)cc1
AC50: 3.16 µM (inconclusive)

compound: CCOC(=O)C1C(=O)C=C(/C=C/c2ccccc2)CC1c1ccc(Cl)cc1 (centres undefined)
AC50: 7.08 µM (inconclusive)

compound: Cc1[nH]c2ccccc2c1/C=C(\C#N)C(=O)NC(C)c1ccccc1 (centres undefined)
AC50: 8.91 µM (inconclusive)

compound: COc1ccccc1CNc1ncnc2ccc(-c3cccc(C#N)c3)cc12
AC50: 2.51 µM (inconclusive)

compound: Cc1ccc(CCN2CC(C(=O)NCCCN(C)Cc3ccccc3)CC2=O)cc1 (centres undefined)
AC50: 14.1 µM (inconclusive)

compound: O=c1cnc2cnc(Oc3ccccc3)nc2n1Cc1cccs1
AC50: 39.8 µM (inconclusive)

compound: COc1cccc(C(=O)Nc2ccc(NC(=O)c3ccco3)cn2)c1
AC50: 20 µM (inconclusive)

compound: Cc1cccc(OCCCC(=O)Nc2ccccc2C(F)(F)F)c1
AC50: 25.1 µM (inconclusive)

compound: c1cc(CNCCN2CCNCC2)ccn1
AC50: 3.98 µM (inconclusive)

compound: N#CCSc1nc(N)c(C#N)c(C2CCCCC2)c1C#N
AC50: 39.8 µM (inconclusive)

compound: CC(C)Oc1ccc(N2CC(C(=O)OCC(=O)NCc3ccccc3)CC2=O)cc1 (centres undefined)
AC50: 22.4 µM (inconclusive)

compound: CCCN1C(=O)C(Cc2nc3ccccc3c(=O)n2C)c2ccccc21 (centres undefined)
AC50: 17.8 µM (inconclusive)

compound: O=Nc1c(O)n(Cc2ccc(Cl)c(Cl)c2)c2ccccc12
AC50: 28.2 µM (inconclusive)
